- test summary: microbe, parasite or virus in culture
- applied conditions: Mycobacterium tuberculosis, 96 h, read-out: pIC50 (converted)
Response field label: string, one of True (IC50 strictly below 50 µM) or False.

CCCc1nc(N(C)Cc2ccco2)c2c(n1)c(C)nn2CC    True
C=C(C)CCOC(=O)c1cc(C(N)=O)cs1    False
CC(=O)NCCCNCc1ccc(Br)c2cccnc12    False
NC(=O)C1CCN(CCOc2ccc(Br)cc2)C1 (configuration not stated)    False
Cn1cc(Cn2nc(-c3ccco3)oc2=O)cn1    False
COc1cccc(C2CC(=O)Nc3nc(N)sc32)c1OC (configuration not stated)    True
CC(=O)c1ccccc1NC(=O)CN1CC[C@H](N)C1    False
CC(C1CC1)N(C)Cc1nnc(-c2ccco2)o1 (configuration not stated)    False
O=C(NCc1cccc(Cl)c1)c1cnns1    False
N#Cc1ccc(S(=O)(=O)NCCCN)cc1C(F)(F)F    False
CC(C)c1noc(CN2CCN(C(=O)c3ccc(F)cc3)CC2)n1    False
CCCc1nc(NCCc2ccccc2)c2c(n1)c(C)nn2CC    True
CN(C)CCCN1CC2(CCN(C3CCCOC3)CC2)OC1=O (configuration not stated)    False
CCOC(=O)CNC(=O)c1ccc2c(c1)OCCO2    False
CC(C)c1cc(N(C)Cc2noc(C3CCCC3)n2)n2nccc2n1    True
CC(CN1CCOCC1)NC(=O)c1csc(Br)c1 (configuration not stated)    False
c1ccc(CN2CCCN(c3ccccn3)CC2)nc1    False
N#Cc1cccc(C(=O)OCCCn2cccn2)c1    False
Cc1nnc(SCCC(=O)N(C)Cc2ccc(Cl)s2)[nH]1    True
NC(=O)C1CCCN(CCc2ccccc2)C1 (configuration not stated)    False
CCc1ccc(CN2CC(N3CCOCC3)C2)o1    False
CN(C1CCCC1)S(=O)(=O)NCCNc1ccccn1    False
Cn1ncc2c(N3CCCN4CCC[C@H]4C3)nc(C(C)(C)C)nc21    True
Cc1cc(Br)cc2cc(C(=O)NC(C)(CO)CO)oc12    False
CC(CO)Sc1ccc(S(=O)(=O)C(F)F)cc1 (configuration not stated)    False
O=C1CN(CC(=O)N2CCCCCCC2)CCN1    False
COC(=O)CNc1ccccc1    False
